Recorded measurements of IC50, one per entry
molecular target: Tyk2 (Homo sapiens (Human), UniProt P29597); assay: pSTAT4 Cell Assay (MSD, NK92 cells); format: cell-based; conditions: MSD
Sequence (P29597 whole entry): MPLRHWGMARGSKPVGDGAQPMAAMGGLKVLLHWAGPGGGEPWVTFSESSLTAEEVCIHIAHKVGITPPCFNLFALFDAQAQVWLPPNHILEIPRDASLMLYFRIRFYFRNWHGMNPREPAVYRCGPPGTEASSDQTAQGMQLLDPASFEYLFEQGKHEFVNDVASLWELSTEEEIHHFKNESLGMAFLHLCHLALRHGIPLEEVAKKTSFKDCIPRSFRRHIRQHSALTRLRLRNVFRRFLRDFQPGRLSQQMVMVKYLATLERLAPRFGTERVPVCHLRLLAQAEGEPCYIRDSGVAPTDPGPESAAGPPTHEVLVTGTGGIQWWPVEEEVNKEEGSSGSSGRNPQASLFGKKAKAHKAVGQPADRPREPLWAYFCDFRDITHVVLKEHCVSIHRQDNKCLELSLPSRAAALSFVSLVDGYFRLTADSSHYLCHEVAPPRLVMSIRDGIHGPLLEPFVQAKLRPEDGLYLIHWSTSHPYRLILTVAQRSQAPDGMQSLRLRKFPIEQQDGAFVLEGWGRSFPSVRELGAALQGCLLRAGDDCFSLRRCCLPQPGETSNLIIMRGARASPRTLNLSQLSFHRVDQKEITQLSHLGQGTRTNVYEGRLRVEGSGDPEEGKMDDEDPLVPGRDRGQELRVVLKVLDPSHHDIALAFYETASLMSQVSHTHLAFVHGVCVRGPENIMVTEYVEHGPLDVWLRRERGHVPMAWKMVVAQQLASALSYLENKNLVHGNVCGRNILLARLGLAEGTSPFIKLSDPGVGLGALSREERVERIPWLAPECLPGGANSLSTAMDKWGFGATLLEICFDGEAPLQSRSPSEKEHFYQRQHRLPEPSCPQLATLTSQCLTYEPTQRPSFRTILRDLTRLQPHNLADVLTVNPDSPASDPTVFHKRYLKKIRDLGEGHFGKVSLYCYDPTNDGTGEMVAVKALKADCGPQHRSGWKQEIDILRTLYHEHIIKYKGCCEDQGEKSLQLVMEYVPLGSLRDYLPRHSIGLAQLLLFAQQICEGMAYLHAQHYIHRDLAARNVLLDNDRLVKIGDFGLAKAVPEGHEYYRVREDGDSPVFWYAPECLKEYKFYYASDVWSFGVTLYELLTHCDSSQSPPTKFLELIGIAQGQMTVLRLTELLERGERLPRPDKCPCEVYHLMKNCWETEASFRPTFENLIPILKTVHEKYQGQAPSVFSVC

So for "CCOc1cnc(NC(C)=O)cc1Nc1cc(O[C@H]2C[C@H](OC)C2)nc(C(C)(F)F)n1" , the logged IC50 turned out to be ≤ 0.01 µM

Measured IC50 of "CC(=O)Nc1cc(Nc2cc(C)nc(C(C)(F)F)n2)c(-c2cn3ccnc3cn2)cn1" : ≤ 0.01 µM

Kindly note the recorded IC50 for "CC(=O)Nc1cc(Nc2cc(C)nc(C(C)(F)F)n2)c(OCc2ccsn2)cn1" , which is ≤ 0.01 µM

Continuing:
Summary for this compound, "CC(=O)Nc1cc(Nc2cc(OC3CC3)nc(C(C)(F)F)n2)c(O[C@H]2C[C@H](F)C2)cn1" : IC50 is 0.01 to 0.1 µM

Briefly, IC50 measured for "COc1cc(-c2cnc(NC(C)=O)cc2Nc2ccnc(C(C)(F)F)n2)nc(C)n1" : 0.01 to 0.1 µM

Reported IC50 ( "CCOc1cnc(NC(C)=O)cc1Nc1cc(O[C@H]2C[C@H](OC)C2)cc(C(C)(F)F)n1" ) = 0.01 to 0.1 µM

"[2H]C([2H])([2H])n1cc(-c2cc(Nc3cc(NC(C)=O)ncc3OCC)nc(C(C)(F)F)n2)cn1" yielded IC50 of ≤ 0.01 µM

Short answer for CC(=O)Nc1cc(Nc2cc(C)nc(C(C)(F)F)n2)c(OCC2CCN(C)C2)cn1 (centres unmarked) : IC50 was 0.01 to 0.1 µM
